# study-target: T1, MAGI2_1, Q86UL8
# T1 sequence (Q86UL8 12-111, limits assumed, looked up): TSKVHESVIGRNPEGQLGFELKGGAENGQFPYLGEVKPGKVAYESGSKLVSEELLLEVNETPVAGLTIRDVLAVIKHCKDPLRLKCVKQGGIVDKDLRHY
# test: holdup assay
# Design: key: below the threshold = too weak to quantify, mostly under pKd 3.1 to 4
# experimental-setup: plain residues with an end cap or a label only (N-terminal biotin on a linker: ttds)
measurement-name: pKd

{"binder": "SHSSKGETAV [FZD7, O75084]", "result": 4.39}
{"binder": "SGGKRKETLV [NET1, Q7Z628]", "result": "below the threshold"}
{"binder": "SRSRRRETAL [HPV33-E6, P06427]", "result": "below the threshold"}
{"binder": "SSIDLWETAL [SLC15A5, A6NIM6]", "result": "below the threshold"}
{"binder": "PPRQRSETQV [HPV82-E6, Q9IR59]", "result": "below the threshold"}
{"binder": "PSRDRKETSI [RALBP1, Q15311]", "result": 3.74}
{"binder": "KLVIKTETTV [RASSF6, Q6ZTQ3]", "result": "below the threshold"}

Data provenance is paper PMC9482650.
